The origin of these recorded values is ChEMBL document CHEMBL4196169.

assay: Solubility of the compound in FaSSIF at pH 6.5 administered as crystalline measured after 15 mins; type: physicochemical
outcome_measure: solubility at […]

Problem: For the compound O=C(Nc1ccc(OC(F)(F)Cl)cc1)c1cnc(N2CC[C@@H](O)C2)c(-c2ccn[nH]2)c1 , what solubility at […] is on record?
Result: 9 µg/mL

###

assay: AUClast in C57BL/6 mouse at 3 mg/kg, po; assay type: ADME, organism-based; design: dose 3 mg/kg, route oral, time 0 - last; details: in vivo
outcome_measure: AUC(0-t)

Problem: Quick check: AUC(0-t) of O=C(Nc1ccc(OC(F)(F)Cl)cc1)c1cnc(N2CC[C@@H](O)C2)c(-c2ccn[nH]2)c1 ?
Result: 0.849 µg·h/mL
